Sourced from PubChem BioAssay (NCI)

The following compounds are listed with their measured TGI values.
test system: MALME-3M melanoma; test: NCI tumour cell line growth inhibition, 48 h
READOUT TYPE: TGI

- COMPOUND: "CC(C)=CCC/C(C)=C/CCC1(C)C2COC(=O)C21 (centres undefined)"
  TARGET OF ASSAY: "MALME-3M melanoma"
  EXPERIMENTAL RESULT: "> 100 µM"
- COMPOUND: "C/C(=N\\N=C(N)N)c1sc(-c2nc(C)c(/C(C)=N/N=C(N)N)s2)nc1C"
  TARGET OF ASSAY: "MALME-3M melanoma"
  EXPERIMENTAL RESULT: "> 100 µM"
- COMPOUND: "COc1ccc(C2=C(N)c3ccccc3C2=O)cc1"
  TARGET OF ASSAY: "MALME-3M melanoma"
  EXPERIMENTAL RESULT: "> 100 µM"
- COMPOUND: "NC(=O)c1ccc(NC(=O)c2oc3ccccc3c2-c2cnn(-c3ccccc3)c2)cc1"
  TARGET OF ASSAY: "MALME-3M melanoma"
  EXPERIMENTAL RESULT: "> 100 µM"

====

test system: COLO 205 colon; experiment: NCI tumour cell line growth inhibition, 48 h
Here, each record is paired with measured TGI data.
READOUT TYPE: TGI (µM)

- COMPOUND: "CC(C)(CN1CCCCC1)C(=O)CC(SCCS(=O)(=O)O)c1ccc(Cl)c(Cl)c1 (stereo not given)"
  RELATION QUALIFIER: "="
  EXPERIMENTAL RESULT: 7.25
- COMPOUND: "O=C(O)c1oc2ccc([N+](=O)[O-])c3c2c1CCC3"
  RELATION QUALIFIER: ">"
  EXPERIMENTAL RESULT: 100
- COMPOUND: "Fc1ccccc1C1SCC2=Nc3ccccc3CN21 (stereo not given)"
  RELATION QUALIFIER: ">"
  EXPERIMENTAL RESULT: 100
- COMPOUND: "COC(=O)C1CC(C=O)=C(SC)N1 (stereo not given)"
  RELATION QUALIFIER: ">"
  EXPERIMENTAL RESULT: 50
- COMPOUND: "COc1cc([N+](=O)[O-])c2ncccc2c1O"
  RELATION QUALIFIER: "="
  EXPERIMENTAL RESULT: 3.46

====

tested on: HS 578T breast; test: NCI tumour cell line growth inhibition, 48 h
We begin with a simple list: items and their reported TGI.
READOUT TYPE: TGI

- COMPOUND: "Cc1cc2nnn(C3CCCO3)c2cc1C (stereo not drawn)"
  EXPERIMENTAL RESULT: "> 100 µM"
- COMPOUND: "N#Cc1nc(Cc2cccs2)oc1N"
  EXPERIMENTAL RESULT: "> 100 µM"
- COMPOUND: "CC(C)(C)c1ccc(C(O)(c2ccc(C(C)(C)C)cc2)c2ccc(C(C)(C)C)cc2)cc1"
  EXPERIMENTAL RESULT: "> 100 µM"
- COMPOUND: "NC(Cc1ccccc1)C(=O)O (stereo not drawn)"
  EXPERIMENTAL RESULT: "> 100 µM"
- COMPOUND: "CNc1ccc([N+](=O)[O-])cc1C(=O)N1CCC[C@H]1CO"
  EXPERIMENTAL RESULT: "> 100 µM"
- COMPOUND: "Nc1ccccc1C#Cc1ccccc1C#CCCCCO"
  EXPERIMENTAL RESULT: "> 100 µM"
- COMPOUND: "C[C@@H]1CC[C@H]2C(CN3CCN(CC4=C(C(F)(F)F)O[C@@H]5O[C@@]6(C)CC[C@H]7[C@H](C)CC[C@@H]4[C@@]57OO6)CC3)=C(C(F)(F)F)O[C@@H]3O[C@@]4(C)CC[C@@H]1[C@]32OO4"
  EXPERIMENTAL RESULT: "> 47.3 µM"
- COMPOUND: "OCC(CO)CC1COc2ccccc2O1 (stereo not drawn)"
  EXPERIMENTAL RESULT: "> 10 µM"
- COMPOUND: "O=C1CCC(c2ccccc2)(c2ccccc2)CC1"
  EXPERIMENTAL RESULT: "> 100 µM"
- COMPOUND: "CC(CN(C)C)C(O)(c1ccccc1)c1ccccc1 (stereo not drawn)"
  EXPERIMENTAL RESULT: "> 100 µM"
- COMPOUND: "Cc1ccc(Oc2cc(C)ccc2P(=O)(O)O)cc1"
  EXPERIMENTAL RESULT: "> 100 µM"
- COMPOUND: "COc1ccccc1OCC(O)CO (stereo not drawn)"
  EXPERIMENTAL RESULT: "> 100 µM"
- COMPOUND: "Cn1c(=O)c2[nH]cnc2n(C)c1=O"
  EXPERIMENTAL RESULT: "> 100 µM"
- COMPOUND: "O=C(O)c1c(Cl)c(Cl)c(Cl)c(Cl)c1-c1c2cc(I)c(=O)c(I)c-2oc2c(I)c(O)c(I)cc12"
  EXPERIMENTAL RESULT: "83.7 µM"
- COMPOUND: "C=C(Cl)C(=C)CCC(Cl)C(C)(C)Cl (stereo not drawn)"
  EXPERIMENTAL RESULT: "> 100 µM"
- COMPOUND: "C=C1C[C@]23CC[C@@H]4C(CO)(CO)CC(=O)C[C@]4(C)[C@@H]2C(O)C[C@H]1C3 (stereo partly drawn)"
  EXPERIMENTAL RESULT: "> 100 µM"
- COMPOUND: "CCN(CC)c1ccc(/C=N\\NC(=O)c2cccc(Nc3ccnc(C(F)(F)F)c3)c2)c(O)c1"
  EXPERIMENTAL RESULT: "11.6 µM"
- COMPOUND: "CC(=O)OCC1OC(O[C@@H]2C[C@H]3C(C)(C)[C@H](OC(C)=O)CC[C@]3(C)[C@H]3CC[C@@H]4[C@]5(CC[C@@]4(C)[C@@]32C)O[C@@H]([C@H](O)C(C)(C)O)C[C@@H]5C)C(O)C(O)C1O (stereo partly drawn)"
  EXPERIMENTAL RESULT: "25.4 µM"
- COMPOUND: "CCSc1nn(-c2c3ccccc3nc3ccccc23)c(=S)s1"
  EXPERIMENTAL RESULT: "> 100 µM"
- COMPOUND: "Cc1cccc(/C=N/NC(=S)NC(C)(C)C)n1"
  EXPERIMENTAL RESULT: "> 100 µM"
- COMPOUND: "CCNC1=CC(=O)c2ncccc2C1=O"
  EXPERIMENTAL RESULT: "6.27 µM"
- COMPOUND: "CCn1cc(C2NC(=O)c3cc(F)ccc3N2)c2cccc(Cl)c21 (stereo not drawn)"
  EXPERIMENTAL RESULT: "> 23.1 µM"
- COMPOUND: "OCC1=C[C@@](COCc2ccccc2)(OCc2ccccc2)[C@@H](OCc2ccccc2)[C@@H]1OCc1ccccc1"
  EXPERIMENTAL RESULT: "87.6 µM"
- COMPOUND: "Cc1ccc(Nc2ccnc(Nc3cccc(C(N)=O)c3)n2)cc1O"
  EXPERIMENTAL RESULT: "8.98 µM"
- COMPOUND: "O=c1[nH]nc(Cc2ccc([N+](=O)[O-])cc2)[nH]1"
  EXPERIMENTAL RESULT: "> 100 µM"
- COMPOUND: "Cc1cc(C#Cc2ccccc2)ccc1-n1c(/C=C/c2ccc(O)cc2)nc2ccccc2c1=O"
  EXPERIMENTAL RESULT: "49.5 µM"
- COMPOUND: "Cn1cc(/C=C2\\C(=O)Nc3cccnc32)c2ccccc21"
  EXPERIMENTAL RESULT: "> 25 µM"
- COMPOUND: "O=C1/C(=C/c2ccc(Cl)c(Cl)c2)CN(C(=O)CCN2CCOCC2)C/C1=C\\c1ccc(Cl)c(Cl)c1"
  EXPERIMENTAL RESULT: "> 10 µM"
